B1: TPR t1 (parent)
chain: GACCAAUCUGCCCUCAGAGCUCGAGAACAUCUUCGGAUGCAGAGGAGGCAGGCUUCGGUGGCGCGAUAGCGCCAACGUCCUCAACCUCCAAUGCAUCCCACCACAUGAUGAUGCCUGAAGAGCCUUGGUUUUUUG

Variants of: B1
experiment_description: polymerase ribozyme fitness, log enrichment relative to wild type (log ratio); higher = more active; in vitro selection for triplet polymerase activity
quantity_name: polymerase ribozyme fitness (log ratio)
# print the numeric value only

Q: Which polymerase ribozyme fitness (log ratio) is listed for C13U G45A ?
A: -0.438

Q: And what about the variant C28G U78C ?
A: -2.53

Q: Could you do the same for C8A G17A C72U U126A , please?
A: -3.12

Q: And for A50U G61U G110A G127A ?
A: -3.84

Q: Let us now turn to U96A U131C
A: -1.19
